These measurements were taken from paper PMC2685098.

Target: T1, AIRE-PHD1 Glu307Ala (human, UniProt O43918 293-354, Glu307Ala)
T1 sequence (looked up): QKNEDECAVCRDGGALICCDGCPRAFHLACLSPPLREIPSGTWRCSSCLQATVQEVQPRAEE
Test: other fluorescence titration
pKd: −log10 of the molar value.
Parameter: pKd

[[record]]
binder = "ARTKQTARKS [non-modified histone H3 tail peptide H3K4me0 (residues 1-10)]"
observed_measurement = 4.72

